Test system: Parainfluenza‐3 virus
Experiment: organism not typed
Type: cell-based
Conditions: Vero, read-out: EC50 Parainfluenza‐3 virus
value-type: EC50
Answer as a quantity: numeral, then unit.

Reported EC50 for Parainfluenza‐3 virus, given NC(=O)c1ncn([C@@H]2O[C@H](CO)[C@@H](O)[C@H]2O)n1 ?
85 µM

All values here come from paper PMC4832832.
